- target.under.test: human carbonic anhydrase 9 (CAIX) (human, UniProt Q16790 38-459)
- method.notes: FACS competition on HT-29 cells against tracer 3BP-2776; pIC50 category C = pIC50 6.1-7.0
- Description: CAIX-expressing human HT-29 colorectal cancer cells (DSMZ, RRID: CVCL_0320) were cultured in McCoys's 5A modified medium (Biochrom, #F1015) including 10% fetal calf serum (FCS), 2 mM L-glutamine, 100 U/ml penicillin and 100 μg/mL streptomycin. […] Cells were washed twice with ice-cold FACS buffer and analyzed in an Attune NxT flow cytometer (Thermo Fisher). Median fluorescence intensities (MFI) of the APC/Cy5-channel were calculated by Attune NxT software.
Starred links: 1 amine or outer side, 2 acyl side, 3 side chain; linkers in the order of their positions; H or OH if unused. Positions of bridges follow the written chain, without caps; N, C: chain ends. Non-standard residues stand in square brackets, D forms with d. Trp(5-Cl) = N[C@@H](Cc1c[nH]c2ccc(Cl)cc12)C(=O)O; mXylylene = c1cc(C[*:1])cc(C[*:2])c1; Sar = CNCC(=O)O
readout.name: pIC50

Reported pIC50 of Ac-VYCEGDW[dL]TWQC-NH2 (linker 3-12 via mXylylene; SMILES CC(=O)N[C@H](C(=O)N[C@@H](Cc1ccc(O)cc1)C(=O)N[C@H]1CSCc2cccc(c2)CSC[C@@H](C(N)=O)NC(=O)[C@H](CCC(N)=O)NC(=O)[C@H](Cc2c[nH]c3ccccc23)NC(=O)[C@H]([C@@H](C)O)NC(=O)[C@@H](CC(C)C)NC(=O)[C@H](Cc2c[nH]c3ccccc23)NC(=O)[C@H](CC(=O)O)NC(=O)CNC(=O)[C@H](CCC(=O)O)NC1=O)C(C)C, also called Ac-Val-Tyr-[Cys(3MeBn)-Glu-Gly-Asp-Trp-leu-Thr-Trp-Gln-Cys]-NH2) [3BP-3048] : 6.1 to 7 pic50

Reported pIC50 of Ac-VYCE[Sar]DWLT[Trp(5-Cl)]QC-NH2 (linker 3-12 via mXylylene; SMILES CC(=O)N[C@H](C(=O)N[C@@H](Cc1ccc(O)cc1)C(=O)N[C@H]1CSCc2cccc(c2)CSC[C@@H](C(N)=O)NC(=O)[C@H](CCC(N)=O)NC(=O)[C@H](Cc2c[nH]c3ccc(Cl)cc23)NC(=O)[C@H]([C@@H](C)O)NC(=O)[C@H](CC(C)C)NC(=O)[C@H](Cc2c[nH]c3ccccc23)NC(=O)[C@H](CC(=O)O)NC(=O)CN(C)C(=O)[C@H](CCC(=O)O)NC1=O)C(C)C, also called Ac-Val-Tyr-[Cys(3MeBn)-Glu-Nmg-Asp-Trp-Leu-Thr-5Clw-Gln-Cys]-NH2) [3BP-3312] : 6.1 to 7 pic50
